# experimentDescription: antimalarial activity against Dd2 strain (AID 2302);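 note: 0% = DMSO untreated growth and 100% = chloroquine plus artemisinin killed control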
# statedConditions: P. falciparum Dd2 in RBCs, LDH growth readout, 72 h; at 2 µM; stronger effect = higher value
Label Yes when growth inhibition is at or above 80%; anything below gets No.

I'd appreciate it if you could say whether CCC1N=C(N)N=C(N)N1OCCCOc1c(Cl)cc(Cl)cc1Cl (centres undefined) has growth inhibition at least equal to 80%.
Yes

Does O=C(/C=C/c1ccc([N+](=O)[O-])cc1)N1CCC(NS(=O)(=O)c2ccc(F)cc2)CC1 have a reported growth inhibition of at least 80%?
No

----------
# experimentDescription: antimalarial activity against Dd2 strain (AID 2302);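 note: 0% = DMSO untreated growth and 100% = chloroquine plus artemisinin killed control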
# statedConditions: P. falciparum Dd2 in RBCs, LDH growth readout, 72 h; at 2 µM; stronger effect = higher value
# Lookup of reported growth inhibition keyed by entry
Quick note: give the figure in %, leave out the unit.

Answered examples (6):
compound	property	measuredResult
CCN(CC)c1nc(Nc2cc(C)ccc2C)nc(Nc2ccccc2O)n1	growth inhibition	99
COc1cccc(CN2CCCC(CCC(=O)Nc3ccc(C(F)(F)F)cc3)C2)c1O (stereo not given)	growth inhibition	97
Cc1ccc(F)cc1S(=O)(=O)NCC(C)c1ccc(NC(=O)Nc2cccc(F)c2)cc1 (stereo not given)	growth inhibition	5
CCOc1ccc(C(=O)N2CCOC(CCN3CCC4(CCc5ccccc54)CC3)(c3ccc(Cl)c(Cl)c3)C2)cc1 (stereo not given)	growth inhibition	25
CCN(CC)C(=NC(N)=NCCCCCCN=C(N)N=C(Nc1ccc(Cl)cc1)N(CC)CC)Nc1ccc(Cl)cc1	growth inhibition	96
CN(C)c1ccc(C=C2SC(=O)NC2=Nc2ccccc2)cc1	growth inhibition	96

Field request: growth inhibition | item: COc1cc2ncnc(Nc3ccc(OCc4ccccc4)c(OCc4ccccc4)c3)c2cc1OC
57

Dear colleague, I am looking for the recorded growth inhibition of the following compound: CCCNCc1ccc(-c2ccc(CN(Cc3cnc(C)cn3)C(=O)CC#N)cc2)nc1
-3

Given the compound COc1ccc(CNCCc2cccs2)cc1-c1ccc(S(=O)(=O)NCCN2CCCC2)s1 , what is its reported growth inhibition?
21

Give its growth inhibition value. Item: CCN(CC)C(=NCCCCCCN=C(/N=C(\N)Nc1ccc(Cl)c(Cl)c1)N(CC)CC)/N=C(\N)Nc1ccc(Cl)c(Cl)c1
90

Param item = CC(CN1CCN(C)CC1)C(=O)Nc1ccc(-c2ccc(-c3nc4ccc(F)cc4[nH]3)cc2)cc1 (stereo not given) ; retrieve measured growth inhibition.
87

What value of growth inhibition has been reported for the following compound? CCc1c(CCNCCCCCCNC(C)(C)Cc2ccc3c(c2CC)OCO3)ccc(OC)c1OC
50

Find the recorded growth inhibition belonging to Cc1ccc2c(-c3ccc([N+](=O)[O-])o3)cc(C)nc2c1 and report it.
47

Which growth inhibition is listed for O=C(c1ccco1)c1cn(CCOc2ccccc2)c2ccccc12 ?
10

Bench note: what growth inhibition did O=C(Nc1ccc2c(c1)CCC2)c1ccc(N2CCN(c3ccncc3)CC2)cn1 show?
58

Which value of growth inhibition has been reported for CC(=O)Nc1nc(C(=O)Nc2cccc(-c3ccc(-c4nc5c(C)cccc5[nH]4)cc3)c2)cs1 in the records?
61

Item COc1ccc(NC(=O)CCNc2cc(C)nc(NCc3cccc(C)c3)n2)cc1 has what recorded growth inhibition?
25

Consider the compound COc1cc2nc(N3CCC(CNC(=O)c4cccc5cccnc45)CC3)nc(N)c2cc1OC and give its measured growth inhibition.
33

Dear colleague, I am looking for the recorded growth inhibition of the following compound: CC(C)(C)C(=O)Nc1ccc(N2CCN(C(c3ccccc3)c3ccccc3)CC2)c(Cl)c1
94

growth inhibition for Cc1cc(N[C@@H](CC(C)C)C(=O)NCCc2ccccc2)nc(NCCc2cccs2)n1 ?
16

meta.source: PubChem BioAssay
